Target: Adenosine receptor A2b (Homo sapiens, UniProt P29275)
Sequence (P29275 whole entry): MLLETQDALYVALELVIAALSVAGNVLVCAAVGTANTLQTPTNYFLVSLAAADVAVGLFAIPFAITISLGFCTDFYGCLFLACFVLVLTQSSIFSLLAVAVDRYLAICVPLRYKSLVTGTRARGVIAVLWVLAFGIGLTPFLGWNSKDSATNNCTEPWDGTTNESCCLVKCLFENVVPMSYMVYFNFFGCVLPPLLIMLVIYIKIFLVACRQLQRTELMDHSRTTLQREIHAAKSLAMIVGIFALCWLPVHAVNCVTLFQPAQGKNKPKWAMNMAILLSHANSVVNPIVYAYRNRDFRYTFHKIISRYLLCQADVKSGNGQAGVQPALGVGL
Assay: Displacement of [3H]DPCPX from human recombinant adenosine A2B receptor expressed in HEK293 cells by beta scintillation counter
testReadout: Ki (nM)

# recordSmiles, assayedSystem, unitAbbrev, Ki
data = [
    ("CCCn1c(=O)c2[nH]c(-c3ccc(COC(=O)Nc4ccccc4)cc3)cc2n(CCC)c1=O", "Adenosine receptor A2b (Homo sapiens, UniProt P29275)", "nM", 7.1),
    ("Cn1c(=O)c2[nH]c(-c3ccc(COC(=O)Nc4ccccn4)cc3)cc2n(C)c1=O", "Adenosine receptor A2b (Homo sapiens, UniProt P29275)", "nM", 81.3),
    ("CCCn1c(=O)c2[nH]c(-c3ccc(COC(=O)Nc4ccon4)cc3)cc2n(CCC)c1=O", "Adenosine receptor A2b (Homo sapiens, UniProt P29275)", "nM", 1.7),
]

1 = Cn1c(=O)c2[nH]c(-c3ccc(COC(=O)Nc4ccccc4)cc3)cc2n(C)c1=O
2 = CCCn1c(=O)c2[nH]c(-c3ccc(COC(=O)Nc4ccccc4)cc3)cc2n(C)c1=O
3 = CCCn1c(=O)c2[nH]c(-c3ccc(COC(=O)Nc4cnccn4)cc3)cc2n(CCC)c1=O
Exercise: Form: Sort by [Ki] Order [ ascending ] Order the labels as requested and give them as your answer.
Solution: 1, 3, 2
